study_system: CCR10 (Homo sapiens)
Construct: expressed in transfected cells
Sequence (P46092 whole entry): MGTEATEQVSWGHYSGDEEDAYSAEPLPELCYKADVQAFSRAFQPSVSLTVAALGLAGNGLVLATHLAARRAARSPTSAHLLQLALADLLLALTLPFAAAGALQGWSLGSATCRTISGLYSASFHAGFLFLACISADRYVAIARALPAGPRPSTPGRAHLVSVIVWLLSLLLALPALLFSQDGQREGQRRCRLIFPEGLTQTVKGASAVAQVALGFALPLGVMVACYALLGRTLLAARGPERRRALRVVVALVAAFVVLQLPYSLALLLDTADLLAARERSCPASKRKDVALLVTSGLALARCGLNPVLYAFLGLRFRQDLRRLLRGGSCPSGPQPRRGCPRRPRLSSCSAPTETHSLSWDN
experimental_details: Figure S2a opioid peptide screen on chemokine receptors
Format: cell-based
Set-up: dose or concentration left out as unconfirmed
details: replicate 3, read-out: CCR10 activity, ctrl+ = 100
readout: activation (%)
Provide only the numeric value, understood in %.

Param item = CC(C)C[C@H](NC(=O)[C@H](Cc1ccccc1)NC(=O)CNC(=O)CNC(=O)[C@@H](N)Cc1ccc(O)cc1)C(=O)N[C@@H](CCCN=C(N)N)C(=O)N[C@@H](CCCN=C(N)N)C(=O)N[C@@H](CCC(N)=O)C(=O)N[C@@H](Cc1ccccc1)C(=O)N[C@@H](CCCCN)C(=O)N[C@H](C(=O)N[C@H](C(=O)N[C@H](C(=O)O)[C@@H](C)O)C(C)C)C(C)C ; retrieve measured activation.
5.94

---

As shown below, each of these molecules has a reported activation value.
study_system: XCR1 (Homo sapiens, UniProt P46094)
Construct: expressed in transfected cells
Sequence (P46094 whole entry): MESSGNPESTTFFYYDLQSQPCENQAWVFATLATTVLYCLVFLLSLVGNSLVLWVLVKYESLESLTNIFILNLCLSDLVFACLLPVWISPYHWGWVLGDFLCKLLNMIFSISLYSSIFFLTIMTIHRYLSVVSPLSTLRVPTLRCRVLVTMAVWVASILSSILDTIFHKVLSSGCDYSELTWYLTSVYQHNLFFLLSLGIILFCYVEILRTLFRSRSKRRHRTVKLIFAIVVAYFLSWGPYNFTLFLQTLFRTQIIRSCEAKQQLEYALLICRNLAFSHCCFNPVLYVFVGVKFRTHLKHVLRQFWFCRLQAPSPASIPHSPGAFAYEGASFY
experimental_details: Figure S2a opioid peptide screen on chemokine receptors
Format: cell-based
Parameters: dose or concentration left out as unconfirmed
details: replicate 3, read-out: XCR1 activity, ctrl+ = 100
Starred links: 1 amine or outer side, 2 acyl side, 3 side chain; linkers in the order of their positions; H or OH if unused. Non-standard residues stand in square brackets, D forms with d. Residues, ends and D or L forms follow the SMILES beside them. X1 = N[C@@H](Cc1ccccc1)CN(CC(=O)[*:2])[*:1]
Provide only the numeric value, understood in %.

Param item = CC[C@H](C)[C@H](NC(=O)[C@H](CCCNC(=N)N)NC(=O)[C@H](CCCNC(=N)N)NC(=O)[C@H](CC(C)C)NC(=O)[C@H](Cc1ccccc1)NC(=O)CNC(=O)CNC(=O)[C@@H](N)Cc1ccc(O)cc1)C(=O)N[C@@H](CCCNC(=N)N)C(=O)N1CCC[C@H]1C(=O)N[C@@H](CCCCN)C(=O)N[C@@H](CC(C)C)C(=O)N[C@@H](CCCCN)C(=O)N[C@@H](Cc1c[nH]c2ccccc12)C(=O)N[C@@H](CC(=O)O)C(=O)N[C@@H](CC(N)=O)C(=O)N[C@@H](CCC(N)=O)C(=O)O [Dynorphin A] ; retrieve measured activation.
11

Param item = C[C@H](NC(=O)CNC(=O)[C@@H](NC(=O)[C@H](Cc1ccccc1)NC(=O)CNC(=O)CNC[C@@H](N)Cc1ccccc1)[C@@H](C)O)C(=O)N[C@@H](CCCNC(=N)N)C(=O)N[C@@H](CCCCN)C(=O)N[C@@H](CO)C(=O)N[C@@H](C)C(=O)N[C@@H](CCCNC(=N)N)C(=O)N[C@@H](CCCCN)C(N)=O [FG Nociceptin 1-13] (H-[X1]GFTGARKSARK-NH2) ; retrieve measured activation.
16.8

Param item = CC(C)C[C@H](NC(=O)[C@H](Cc1ccccc1)NC(=O)CNC(=O)CNC(=O)[C@@H](N)Cc1ccc(O)cc1)C(=O)N[C@@H](CCCN=C(N)N)C(=O)N[C@@H](CCCN=C(N)N)C(=O)N[C@@H](CCC(N)=O)C(=O)N[C@@H](Cc1ccccc1)C(=O)N[C@@H](CCCCN)C(=O)N[C@H](C(=O)N[C@H](C(=O)N[C@H](C(=O)O)[C@@H](C)O)C(C)C)C(C)C [Dynorphin B] ; retrieve measured activation.
9.32

Param item = C[C@H](NC(=O)CNC(=O)[C@@H](NC(=O)[C@H](Cc1ccccc1)NC(=O)CNC(=O)CNC(=O)[C@@H](N)Cc1ccccc1)[C@@H](C)O)C(=O)N[C@@H](CCCNC(=N)N)C(=O)N[C@@H](CCCCN)C(=O)N[C@@H](CO)C(=O)N[C@@H](C)C(=O)N[C@@H](CCCNC(=N)N)C(=O)N[C@@H](CCCCN)C(N)=O [Nociceptin 1-13] ; retrieve measured activation.
4.45

---

As shown below, each of these molecules has a reported activation value.
study_system: CCR6 (Homo sapiens)
Construct: expressed in transfected cells
Sequence (P51684 1-374): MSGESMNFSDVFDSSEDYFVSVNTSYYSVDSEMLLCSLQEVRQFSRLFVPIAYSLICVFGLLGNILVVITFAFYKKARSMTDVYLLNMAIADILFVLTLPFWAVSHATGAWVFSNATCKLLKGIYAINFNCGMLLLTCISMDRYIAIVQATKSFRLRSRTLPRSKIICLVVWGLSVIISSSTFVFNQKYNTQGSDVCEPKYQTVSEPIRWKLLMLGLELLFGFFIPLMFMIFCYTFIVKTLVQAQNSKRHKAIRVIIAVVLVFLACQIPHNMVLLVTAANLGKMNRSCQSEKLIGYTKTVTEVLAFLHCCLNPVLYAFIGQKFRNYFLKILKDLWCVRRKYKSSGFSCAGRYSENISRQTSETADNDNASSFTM
experimental_details: Figure S2a opioid peptide screen on chemokine receptors
Assay type: cell-based
Design: dose or concentration left out as unconfirmed
details: replicate 2, read-out: CCR6 activity, ctrl+ = 100
Starred links: 1 amine or outer side, 2 acyl side, 3 side chain; linkers in the order of their positions; H or OH if unused. Non-standard residues stand in square brackets, D forms with d. Residues, ends and D or L forms follow the SMILES beside them. X1 = N[C@@H](Cc1ccccc1)CN(CC(=O)[*:2])[*:1]
Provide only the numeric value, understood in %.

- molecule: "CC[C@H](C)[C@H](NC(=O)[C@H](CCCNC(=N)N)NC(=O)[C@H](CCCNC(=N)N)NC(=O)[C@H](CC(C)C)NC(=O)[C@H](Cc1ccccc1)NC(=O)CNC(=O)CN)C(=O)N[C@@H](CCCNC(=N)N)C(=O)N1CCC[C@H]1C(=O)N[C@@H](CCCCN)C(=O)N[C@@H](CC(C)C)C(=O)N[C@@H](CCCCN)C(=O)N[C@@H](Cc1c[nH]c2ccccc12)C(=O)N[C@@H](CC(=O)O)C(=O)N[C@@H](CC(N)=O)C(=O)N[C@@H](CCC(N)=O)C(=O)O"
  readout: "activation"
  numeric_readout: -1.06
- molecule: "CC(C)C[C@H](NC(=O)[C@H](CCCCN)NC(=O)[C@H](CCCN=C(N)N)NC(=O)[C@H](C)NC(=O)[C@H](CO)NC(=O)[C@H](CCCCN)NC(=O)[C@H](CCCN=C(N)N)NC(=O)[C@H](C)NC(=O)CNC(=O)[C@@H](NC(=O)[C@H](Cc1ccccc1)NC(=O)CNC(=O)CNC(=O)[C@@H](N)Cc1ccccc1)[C@@H](C)O)C(=O)N[C@@H](C)C(=O)N[C@@H](CC(N)=O)C(=O)N[C@@H](CCC(N)=O)C(=O)O"
  readout: "activation"
  numeric_readout: 0.601
- molecule: "C[C@H](NC(=O)CNC(=O)[C@@H](NC(=O)[C@H](Cc1ccccc1)NC(=O)CNC(=O)CNC(=O)[C@@H](N)Cc1ccccc1)[C@@H](C)O)C(=O)N[C@@H](CCCNC(=N)N)C(=O)N[C@@H](CCCCN)C(=O)N[C@@H](CO)C(=O)N[C@@H](C)C(=O)N[C@@H](CCCNC(=N)N)C(=O)N[C@@H](CCCCN)C(N)=O"
  readout: "activation"
  numeric_readout: -0.975

Param item = CSCC[C@H](NC(=O)[C@H](Cc1ccccc1)NC(=O)CNC(=O)CNC(=O)[C@@H](N)Cc1ccc(O)cc1)C(=O)N[C@@H](CCCNC(=N)N)C(=O)N[C@@H](CCCNC(=N)N)C(=O)N[C@H](C(N)=O)C(C)C ; retrieve measured activation.
1.08

Param item = C[C@H](NC(=O)CNC(=O)[C@@H](NC(=O)[C@H](Cc1ccccc1)NC(=O)CNC(=O)CNC[C@@H](N)Cc1ccccc1)[C@@H](C)O)C(=O)N[C@@H](CCCNC(=N)N)C(=O)N[C@@H](CCCCN)C(=O)N[C@@H](CO)C(=O)N[C@@H](C)C(=O)N[C@@H](CCCNC(=N)N)C(=O)N[C@@H](CCCCN)C(N)=O [FG Nociceptin 1-13] (H-[X1]GFTGARKSARK-NH2) ; retrieve measured activation.
-0.683

Param item = CC[C@H](C)[C@H](NC(=O)[C@H](CCCNC(=N)N)NC(=O)[C@H](CCCNC(=N)N)NC(=O)[C@H](CC(C)C)NC(=O)[C@H](Cc1ccccc1)NC(=O)CNC(=O)CNC(=O)[C@@H](N)Cc1ccc(O)cc1)C(=O)N[C@@H](CCCNC(=N)N)C(=O)N1CCC[C@H]1C(=O)N[C@@H](CCCCN)C(=O)N[C@@H](CC(C)C)C(=O)N[C@@H](CCCCN)C(=O)N[C@@H](Cc1c[nH]c2ccccc12)C(=O)N[C@@H](CC(=O)O)C(=O)N[C@@H](CC(N)=O)C(=O)N[C@@H](CCC(N)=O)C(=O)O ; retrieve measured activation.
-1.32

---

study_system: CCR9 (Homo sapiens, UniProt P51686)
Construct: expressed in transfected cells
Sequence (P51686 1-369): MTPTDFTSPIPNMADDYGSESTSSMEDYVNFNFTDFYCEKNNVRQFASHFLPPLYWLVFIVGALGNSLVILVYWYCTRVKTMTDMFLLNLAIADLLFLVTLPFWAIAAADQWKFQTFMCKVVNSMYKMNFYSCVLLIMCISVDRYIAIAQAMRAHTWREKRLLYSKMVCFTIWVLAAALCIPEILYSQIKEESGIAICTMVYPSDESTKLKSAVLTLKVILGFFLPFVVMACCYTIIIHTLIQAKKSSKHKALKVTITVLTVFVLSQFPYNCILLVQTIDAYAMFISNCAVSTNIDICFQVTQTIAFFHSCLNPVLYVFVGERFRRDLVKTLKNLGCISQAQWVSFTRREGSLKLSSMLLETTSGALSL
experimental_details: Figure S2a opioid peptide screen on chemokine receptors
Format: cell-based
Set-up: dose or concentration left out as unconfirmed
details: replicate 3, read-out: CCR9 activity, ctrl+ = 100
Starred links: 1 amine or outer side, 2 acyl side, 3 side chain; linkers in the order of their positions; H or OH if unused. Non-standard residues stand in square brackets, D forms with d. Residues, ends and D or L forms follow the SMILES beside them. X1 = N[C@@H](Cc1ccccc1)CN(CC(=O)[*:2])[*:1]
readout: activation (%)
Provide only the numeric value, understood in %.

A selection of reference data follows.
- compound: "CC[C@H](C)[C@H](NC(=O)[C@H](CCCNC(=N)N)NC(=O)[C@H](CCCNC(=N)N)NC(=O)[C@H](CC(C)C)NC(=O)[C@H](Cc1ccccc1)NC(=O)CNC(=O)CNC(=O)[C@@H](N)Cc1ccc(O)cc1)C(=O)N[C@@H](CCCNC(=N)N)C(=O)N1CCC[C@H]1C(=O)N[C@@H](CCCCN)C(=O)N[C@@H](CC(C)C)C(=O)N[C@@H](CCCCN)C(=O)N[C@@H](Cc1c[nH]c2ccccc12)C(=O)N[C@@H](CC(=O)O)C(=O)N[C@@H](CC(N)=O)C(=O)N[C@@H](CCC(N)=O)C(=O)O"
  readout: "activation"
  numeric_readout: 10.9
- compound: "CSCC[C@H](NC(=O)[C@H](Cc1ccccc1)NC(=O)CNC(=O)CNC(=O)[C@@H](N)Cc1ccc(O)cc1)C(=O)N[C@@H](CCCNC(=N)N)C(=O)N[C@@H](CCCNC(=N)N)C(=O)N[C@H](C(N)=O)C(C)C"
  readout: "activation"
  numeric_readout: 2.74
- compound: "C[C@H](NC(=O)CNC(=O)[C@@H](NC(=O)[C@H](Cc1ccccc1)NC(=O)CNC(=O)CNC(=O)[C@@H](N)Cc1ccccc1)[C@@H](C)O)C(=O)N[C@@H](CCCNC(=N)N)C(=O)N[C@@H](CCCCN)C(=O)N[C@@H](CO)C(=O)N[C@@H](C)C(=O)N[C@@H](CCCNC(=N)N)C(=O)N[C@@H](CCCCN)C(N)=O"
  readout: "activation"
  numeric_readout: 2.5
- compound: "CC(C)C[C@H](NC(=O)[C@H](Cc1ccccc1)NC(=O)CNC(=O)CNC(=O)[C@@H](N)Cc1ccc(O)cc1)C(=O)N[C@@H](CCCN=C(N)N)C(=O)N[C@@H](CCCN=C(N)N)C(=O)N[C@@H](CCC(N)=O)C(=O)N[C@@H](Cc1ccccc1)C(=O)N[C@@H](CCCCN)C(=O)N[C@H](C(=O)N[C@H](C(=O)N[C@H](C(=O)O)[C@@H](C)O)C(C)C)C(C)C"
  readout: "activation"
  numeric_readout: 15.7

Param item = C[C@H](NC(=O)CNC(=O)[C@@H](NC(=O)[C@H](Cc1ccccc1)NC(=O)CNC(=O)CNC[C@@H](N)Cc1ccccc1)[C@@H](C)O)C(=O)N[C@@H](CCCNC(=N)N)C(=O)N[C@@H](CCCCN)C(=O)N[C@@H](CO)C(=O)N[C@@H](C)C(=O)N[C@@H](CCCNC(=N)N)C(=O)N[C@@H](CCCCN)C(N)=O [FG Nociceptin 1-13] (H-[X1]GFTGARKSARK-NH2) ; retrieve measured activation.
0.538
